Experiment: in vivo
Settings: male, mouse, plasma, po, 40 mg/kg, Cmax, WT mice, vehicle pretreatment, ponatinib 40 mg/kg oral gavage

- Compound: "Cc1ccc(C(=O)Nc2ccc(CN3CCN(C)CC3)c(C(F)(F)F)c2)cc1C#Cc1cnc2cccnn12 [ponatinib]"
  Cmax, ng/mL: 1210

====

Experiment: in vivo
Conditions: male, mouse, plasma, po, 40 mg/kg, Cmax, WT mice, TCDD pretreatment (10 µg/kg i.p. daily for 3 days), ponatinib 40 mg/kg oral gavage

- Compound string: "Cc1ccc(C(=O)Nc2ccc(CN3CCN(C)CC3)c(C(F)(F)F)c2)cc1C#Cc1cnc2cccnn12"
  Cmax [ng/mL]: 253

====

Experiment: in vivo
Details: male, hCYP1A1/1A2 humanized, mouse, in vivo, po, 40 mg/kg, t1/2, hCYP1A1/1A2 mice, 3-MC pretreatment (40 mg/kg i.p. daily for 3 days), ponatinib 40 mg/kg oral gavage

- Compound string: "Cc1ccc(C(=O)Nc2ccc(CN3CCN(C)CC3)c(C(F)(F)F)c2)cc1C#Cc1cnc2cccnn12"
  Units text: "h"
  half-life: 4.6

====

Test: in vivo
Settings: male, hCYP1A1/1A2 humanized, mouse, in vivo, po, 40 mg/kg, Cmax, hCYP1A1/1A2 mice, vehicle pretreatment, ponatinib 40 mg/kg oral gavage

- Compound string: "Cc1ccc(C(=O)Nc2ccc(CN3CCN(C)CC3)c(C(F)(F)F)c2)cc1C#Cc1cnc2cccnn12"
  Cmax: "705 ng/mL"

Origin of the recorded values: paper PMC5596814
